Please respond with reported Ki for every item in the list.
target: Bcl-xL (GST-Bcl-xL) (Homo sapiens, UniProt Q07817); assay: TR-FRET binding assay, competition with F-Bak for the Bcl-xL binding site; conditions: values listed in the order of Table 1, read-out: TR-FRET assay results (Ki), Bcl-xL
Sequence (Q07817 whole entry, species assumed): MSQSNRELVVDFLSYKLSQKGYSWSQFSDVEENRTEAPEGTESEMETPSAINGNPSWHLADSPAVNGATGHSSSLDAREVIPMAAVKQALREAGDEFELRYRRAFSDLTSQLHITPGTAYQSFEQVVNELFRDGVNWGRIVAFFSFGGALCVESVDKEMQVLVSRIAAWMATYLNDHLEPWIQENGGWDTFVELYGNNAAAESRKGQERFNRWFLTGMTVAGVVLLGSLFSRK
Give bare numbers, in nM.

Here is how some compounds turned out for Ki.
* Cn1cnnc1-c1ccc(OCCCc2sc(N3CCc4cccc(C(=O)Nc5nc6ccccc6s5)c4C3)nc2C(=O)O)cc1 | 0.2
* CN(C)c1cccc(OCCCc2sc(N3CCc4cccc(C(=O)Nc5nc6ccccc6s5)c4C3)nc2C(=O)O)c1 | 0.1
* CC(C)Nc1ncnc2c1cnn2-c1ccc(OCCCc2sc(N3CCc4cccc(C(=O)Nc5nc6ccccc6s5)c4C3)nc2C(=O)O)cc1 | 0.07
* O=C(Nc1nc2ccccc2s1)c1cccc2c1CN(c1nc(C(=O)O)c(CCCO)s1)CC2 | 5
* O=C(Nc1nc2ccccc2s1)c1cccc2c1CN(c1nc(C(=O)O)c(CCCOc3ccc(-c4cnn(CCN5CCOCC5)c4)cc3)s1)CC2 | 0.05
* N#C/C=C/c1cccc(OCCCc2sc(N3CCc4cccc(C(=O)Nc5nc6ccccc6s5)c4C3)nc2C(=O)O)c1 | 0.4
* Cc1c(CN2CCN(C)CC2)cnn1-c1ccc(OCCCc2sc(N3CCc4cccc(C(=O)Nc5nc6ccccc6s5)c4C3)nc2C(=O)O)cc1 | 0.05
* N#CC1(c2ccc(OCCCc3sc(N4CCc5cccc(C(=O)Nc6nc7ccccc7s6)c5C4)nc3C(=O)O)cc2)CCC1 | 3
* O=C(Nc1nc2ccccc2s1)c1cccc2c1CN(c1nc(C(=O)O)c(CCCOc3cc(F)c(NCCN4CCOCC4)cc3F)s1)CC2 | 0.05
* CN(C)CC#Cc1ccc(OCCCc2sc(N3CCc4cccc(C(=O)Nc5nc6ccccc6s5)c4C3)nc2C(=O)O)cc1F | 3

Working through the 4 compounds below one at a time, give Ki for each.
1. CN(C)CCOc1cnc(-c2ccc(OCCCc3ccc(N4CCc5cccc(C(=O)Nc6nc7ccccc7s6)c5C4)nc3C(=O)O)cc2)nc1
2. CN1CCN(Cc2ccc(OCCCc3sc(N4CCc5cccc(C(=O)Nc6nc7ccccc7s6)c5C4)nc3C(=O)O)cc2)CC1
3. O=C(Nc1nc2ccccc2s1)c1cccc2c1CN(c1nc(C(=O)O)c(CCNS(=O)(=O)c3cccc([N+](=O)[O-])c3)s1)CC2
4. O=C(Nc1nc2ccccc2s1)c1cccc2c1CN(c1nc(C(=O)O)c(CCCOc3ccc(-c4cccnc4)cc3)s1)CC2

[0.2, 0.1, 40, 0.1]

###

So I've got IC50 readings for UniProtKB Q07817, take a look.
Answers are plain numbers, in nM.

* O=C(Nc1nc2ccccc2s1)c1cccc2c1CN(c1nc(C(=O)O)c(CCCn3cnc4ccccc43)s1)CC2 [Example 15] | 10
* O=C(Nc1nc2ccccc2s1)c1cccc2c1CN(c1nc(C(=O)O)c(CCOc3cccc(-n4ncc5cncnc54)c3)s1)CC2 [Example 50] | 10

The record that follows has no IC50 shown yet.
Reported IC50 of O=C(Nc1nc2ccccc2s1)c1cccc2c1CN(c1nc(C(=O)O)c(CCCSc3ccncc3)s1)CC2 [Example 3] : 1

###

test system: platelets; assay: Cell viability assay for platelets (platelet rich plasma, CellTiter-Glo); format: cell-based; conditions: approximately 4 hours at 37 C
measuredQuantity: pEC50
Give bare numbers, as −log10 of the molar value.

Here is how some compounds turned out for pEC50.
* O=C(Nc1nc2ccccc2s1)c1cccc2c1CN(c1nc(C(=O)O)c(CCCOc3ccc(-c4csc5c(NCCCN6CCCC6)ncnc45)cc3)s1)CC2 [Example 78] | 8.52
* O=C(Nc1nc2ccccc2s1)c1cccc2c1CN(c1nc(C(=O)O)c(CCCOc3ccc(OCCN4CCOCC4)cc3)s1)CC2 [Example 88] | 8.52
* O=C(Nc1nc2ccccc2s1)c1cccc2c1CN(c1ccc(CCCOc3ccc(-c4ncccn4)cc3)c(C(=O)O)n1)CC2 [Example 96] | 6.45
* CN1CCN(c2cccc(OCCCc3sc(N4CCc5cccc(C(=O)Nc6nc7ccccc7s6)c5C4)nc3C(=O)O)c2)CC1 [Example 87] | 8.52
* CN(C)CCOc1ccc(-c2ccc(OCCCc3sc(N4CCc5cccc(C(=O)Nc6nc7ccccc7s6)c5C4)nc3C(=O)O)cc2)nc1 [Example 90] | 8.52

Working through the 2 compounds below one at a time, give pEC50 for each.
1. CN(C)CCCNc1ncnc2c1cnn2-c1ccc(OCCCc2sc(N3CCc4cccc(C(=O)Nc5nc6ccccc6s5)c4C3)nc2C(=O)O)cc1 [Example 54]
2. CN1CCN(c2ncnc3c(-c4ccc(OCCCc5sc(N6CCc7cccc(C(=O)Nc8nc9ccccc9s8)c7C6)nc5C(=O)O)cc4)csc23)CC1 [Example 79]

6.88
8.52

Value source: patent US8232273B2
